# TARGET_UNDER_TEST: T1, recombinant human IL-23R/Fc chimera (R&D Systems) (human, UniProt Q5VWK5 24-353)
# T1 construct: bought; also called human IL-23R/Fc fusion protein; rhIL23RFc
# T1 sequence (looked up): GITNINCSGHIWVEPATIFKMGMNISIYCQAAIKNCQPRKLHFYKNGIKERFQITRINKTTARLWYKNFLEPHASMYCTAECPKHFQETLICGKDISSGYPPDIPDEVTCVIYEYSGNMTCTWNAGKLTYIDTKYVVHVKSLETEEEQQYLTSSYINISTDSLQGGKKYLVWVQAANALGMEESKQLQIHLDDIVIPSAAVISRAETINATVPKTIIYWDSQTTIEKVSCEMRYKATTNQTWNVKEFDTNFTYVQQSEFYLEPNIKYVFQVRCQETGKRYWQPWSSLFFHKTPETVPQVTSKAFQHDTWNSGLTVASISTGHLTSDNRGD
# METHOD_NOTES: SPR (Biacore), captured IL-23R/Fc, ATRIMER
pKd: −log10 of the molar value.

# BINDER, pKd
rows = [
    ("C3C ATRIMER (designed binder, Forms a homotrimer through the tetranectin coiled coil; one protomer is given., also called 001-89.C3C) EPPTQKPKKIVNAKKDVVNTKMFEELKSRLDTLAQEVALLKEQQALQTVCLKGTKVHMKCFLAFTQTKTFHEASEDCISRGGTLSTPQTGSENDALYEYLRQSVGNEAEIWLGLNANRRRTMWVDMTGARIAYKNWETEITAQPDGGMGVWGENCAVLSGAANGKWFDKRCRDQLPYICQFGIV", 8.08),
    ("101-51-1A7 ATRIMER (designed binder) EPPTQKPKKIVNAKKDVVNTKMFEELKSRLDTLAQEVALLKEQQALQTVCLKGTKVHMKCFLAFTQTKTFHEASEDCISRGGTLSTPQTGSENDALYEYLRQSVGNEAEIWLGLNGSALTNTWVDMTGARIAYKNWERPPLYQPGGGWGVFGENCAVLSGAANGKWFDKRCRDQLPYICQFGIV", 9.35),
]
